Entry source: ChEMBL document CHEMBL3885861

- Organism: Rattus norvegicus
- experiment_notes: Open TG-GATES - Regimen: Single
- Type: toxicity, organism-based, Sprague-Dawley
- Set-up: regimen Single, gender Male, age 6 weeks
- run_conditions: in vivo, po, 0 mg/kg, 6 h, tissue Plasma, route gavage, dose level Control
measured_property: GLC (mg/dL)

CCOC(=O)C(C)(C)Oc1ccc(Cl)cc1 [CLOFIBRATE]    192.2
Cc1cccc(C)c1OCC(C)N (stereo not given) [MEXILETINE]    192.4
C[C@H]1C(=O)O[C@@H]2CCN3CC=C(COC(=O)[C@](C)(O)[C@]1(C)O)[C@H]23 [MONOCROTALINE]    176
Cc1ccc2cc3c(ccc4ccccc43)c3c2c1CC3 [3-METHYLCHOLANTHRENE]    201.6
O=[N+]([O-])c1ccc(O)c([N+](=O)[O-])c1 [2,4-DINITROPHENOL]    191.6

---

- Organism: Rattus norvegicus
- experiment_notes: Open TG-GATES - Regimen: Single
- Format: toxicity, organism-based, Sprague-Dawley
- Design: regimen Single, gender Male, age 6 weeks
- run_conditions: in vivo, po, 0 mg/kg, 9 h, tissue Plasma, route gavage, dose level Control
Parameter: Na. Scope: all listed entries.
measured_property: Na (meq/L)

Cc1ccc2cc3c(ccc4ccccc43)c3c2c1CC3    141.6
OCCN1CCN(CCCN2c3ccccc3Sc3ccc(C(F)(F)F)cc32)CC1    137.2
C=C(C)[C@H]1Cc2c(ccc3c2O[C@@H]2COc4cc(OC)c(OC)cc4[C@@H]2C3=O)O1    140
C[C@H]1C(=O)O[C@@H]2CCN3CC=C(COC(=O)[C@](C)(O)[C@]1(C)O)[C@H]23    142
Cn1cc[nH]c1=S    141.6
C[C@H]1O[C@H](O[C@H]2[C@H](O)[C@@H](O)[C@@H](O[C@H]3[C@H](O)[C@@H](O)C(O)O[C@@H]3CO)O[C@@H]2CO)[C@H](O)[C@@H](O)[C@@H]1N[C@H]1C=C(CO)[C@@H](O)[C@H](O)[C@H]1O (some centres undefined)    140.8
O=[N+]([O-])c1ccc(O)c([N+](=O)[O-])c1    139.4
Cc1cccc(C)c1OCC(C)N (centres undefined)    141.6
CCOC(=O)C(C)(C)Oc1ccc(Cl)cc1 [CLOFIBRATE]    141.2

---

- Organism: Rattus norvegicus
- experiment_notes: Open TG-GATES - Regimen: Single
- Type: toxicity, organism-based, Sprague-Dawley
- Set-up: regimen Single, gender Male, age 6 weeks
- run_conditions: in vivo, po, 0 mg/kg, 9 h, tissue Plasma, route gavage, dose level Control
Parameter: Ca. Scope: all listed entries.
measured_property: Ca (mg/dL)

C[C@H]1C(=O)O[C@@H]2CCN3CC=C(COC(=O)[C@](C)(O)[C@]1(C)O)[C@H]23    10.4
C=C(C)[C@H]1Cc2c(ccc3c2O[C@@H]2COc4cc(OC)c(OC)cc4[C@@H]2C3=O)O1    11
Cc1ccc2cc3c(ccc4ccccc43)c3c2c1CC3    10.6
Cn1cc[nH]c1=S    10.4
Cc1cccc(C)c1OCC(C)N (stereo not given)    10.5

---

- Species on record: Rattus norvegicus
- experiment_notes: Open TG-GATES - Regimen: Daily Repeat
- Format: toxicity, organism-based, Sprague-Dawley
- Set-up: regimen Daily Repeat, gender Male, age 6 weeks
- run_conditions: in vivo, po, 0 mg/kg, […], tissue Blood, route gavage, dose level Control, time 14 day
Parameter: RBC. Scope: all listed entries.
measured_property: RBC (x10_4/ul)

C=C(C)[C@H]1Cc2c(ccc3c2O[C@@H]2COc4cc(OC)c(OC)cc4[C@@H]2C3=O)O1 [ROTENONE]    678.4
O=[N+]([O-])c1ccc(O)c([N+](=O)[O-])c1 [2,4-DINITROPHENOL]    660.8
C[C@H]1C(=O)O[C@@H]2CCN3CC=C(COC(=O)[C@](C)(O)[C@]1(C)O)[C@H]23 [MONOCROTALINE]    681.6
OCCN1CCN(CCCN2c3ccccc3Sc3ccc(C(F)(F)F)cc32)CC1 [FLUPHENAZINE]    699.2
C[C@H]1O[C@H](O[C@H]2[C@H](O)[C@@H](O)[C@@H](O[C@H]3[C@H](O)[C@@H](O)C(O)O[C@@H]3CO)O[C@@H]2CO)[C@H](O)[C@@H](O)[C@@H]1N[C@H]1C=C(CO)[C@@H](O)[C@H](O)[C@H]1O (some centres undefined) [ACARBOSE]    720
Cn1cc[nH]c1=S [METHIMAZOLE]    672.6
Cc1cccc(C)c1OCC(C)N (centres undefined) [MEXILETINE]    608.6
CCOC(=O)C(C)(C)Oc1ccc(Cl)cc1 [CLOFIBRATE]    704.8
O=C1CN(/N=C/c2ccc([N+](=O)[O-])o2)C(=O)N1 [NITROFURANTOIN]    718.6

---

- Species on record: Rattus norvegicus
- experiment_notes: Open TG-GATES - Regimen: Single
- Assay type: toxicity, organism-based, Sprague-Dawley
- Set-up: regimen Single, gender Male, age 6 weeks
- run_conditions: in vivo, po, 0 mg/kg, 24 h, tissue Blood, route gavage, dose level Control
Parameter: Ht. Scope: all listed entries.
measured_property: Ht (%)

Cc1ccc2cc3c(ccc4ccccc43)c3c2c1CC3    38.4
O=[N+]([O-])c1ccc(O)c([N+](=O)[O-])c1    37.5
Cn1cc[nH]c1=S    38.8
C[C@H]1O[C@H](O[C@H]2[C@H](O)[C@@H](O)[C@@H](O[C@H]3[C@H](O)[C@@H](O)C(O)O[C@@H]3CO)O[C@@H]2CO)[C@H](O)[C@@H](O)[C@@H]1N[C@H]1C=C(CO)[C@@H](O)[C@H](O)[C@H]1O (stereo partly drawn)    40.1
CCOC(=O)C(C)(C)Oc1ccc(Cl)cc1 [CLOFIBRATE]    39.5
C=C(C)[C@H]1Cc2c(ccc3c2O[C@@H]2COc4cc(OC)c(OC)cc4[C@@H]2C3=O)O1    38.4
C[C@H]1C(=O)O[C@@H]2CCN3CC=C(COC(=O)[C@](C)(O)[C@]1(C)O)[C@H]23    37.9
Cc1cccc(C)c1OCC(C)N (stereo not drawn)    40.2

---

- Organism: Rattus norvegicus
- experiment_notes: Open TG-GATES - Regimen: Single
- Type: toxicity, organism-based, Sprague-Dawley
- Parameters: regimen Single, gender Male, age 6 weeks
- run_conditions: in vivo, po, 0 mg/kg, 9 h, tissue Blood, route gavage, dose level Control
measured_property: Eos (%)

Cc1cccc(C)c1OCC(C)N (stereo not given)    0.8
Cc1ccc2cc3c(ccc4ccccc43)c3c2c1CC3    0.6
O=[N+]([O-])c1ccc(O)c([N+](=O)[O-])c1    1
C[C@H]1C(=O)O[C@@H]2CCN3CC=C(COC(=O)[C@](C)(O)[C@]1(C)O)[C@H]23    1
OCCN1CCN(CCCN2c3ccccc3Sc3ccc(C(F)(F)F)cc32)CC1    0.8

---

- Organism: Rattus norvegicus
- experiment_notes: Open TG-GATES - Regimen: Daily Repeat
- Assay type: toxicity, organism-based, Sprague-Dawley
- Parameters: regimen Daily Repeat, gender Male, age 6 weeks
- run_conditions: in vivo, po, 0 mg/kg, […], tissue Blood, route gavage, dose level Control, time 14 day
Parameter: MCV. Scope: all listed entries.
measured_property: MCV (fL)

Cc1cccc(C)c1OCC(C)N (centres undefined)    64.8
C[C@H]1O[C@H](O[C@H]2[C@H](O)[C@@H](O)[C@@H](O[C@H]3[C@H](O)[C@@H](O)C(O)O[C@@H]3CO)O[C@@H]2CO)[C@H](O)[C@@H](O)[C@@H]1N[C@H]1C=C(CO)[C@@H](O)[C@H](O)[C@H]1O (some centres undefined)    60.1
O=C1CN(/N=C/c2ccc([N+](=O)[O-])o2)C(=O)N1    57.7
CCOC(=O)C(C)(C)Oc1ccc(Cl)cc1 [CLOFIBRATE]    58.5

---

- Species: Rattus norvegicus
- experiment_notes: Open TG-GATES - Regimen: Single
- Assay type: toxicity, organism-based, Sprague-Dawley
- Design: regimen Single, gender Male, age 6 weeks
- run_conditions: in vivo, po, 0 mg/kg, 3 h, tissue Blood, route gavage, dose level Control
measured_property: Hb

Cn1cc[nH]c1=S [METHIMAZOLE]    13.6 g/dL
C[C@H]1C(=O)O[C@@H]2CCN3CC=C(COC(=O)[C@](C)(O)[C@]1(C)O)[C@H]23 [MONOCROTALINE]    12.9 g/dL
Cc1ccc2cc3c(ccc4ccccc43)c3c2c1CC3 [3-METHYLCHOLANTHRENE]    12.8 g/dL
C=C(C)[C@H]1Cc2c(ccc3c2O[C@@H]2COc4cc(OC)c(OC)cc4[C@@H]2C3=O)O1 [ROTENONE]    12.6 g/dL
OCCN1CCN(CCCN2c3ccccc3Sc3ccc(C(F)(F)F)cc32)CC1 [FLUPHENAZINE]    13.1 g/dL
O=[N+]([O-])c1ccc(O)c([N+](=O)[O-])c1 [2,4-DINITROPHENOL]    13.2 g/dL
C[C@H]1O[C@H](O[C@H]2[C@H](O)[C@@H](O)[C@@H](O[C@H]3[C@H](O)[C@@H](O)C(O)O[C@@H]3CO)O[C@@H]2CO)[C@H](O)[C@@H](O)[C@@H]1N[C@H]1C=C(CO)[C@@H](O)[C@H](O)[C@H]1O (some centres undefined) [ACARBOSE]    13.4 g/dL
Cc1cccc(C)c1OCC(C)N (centres undefined) [MEXILETINE]    12.8 g/dL
CCOC(=O)C(C)(C)Oc1ccc(Cl)cc1 [CLOFIBRATE]    13.3 g/dL
